# System: MYLK4
# particulars: concentration: 1 μM,replicates: in singlicate; n = 1;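 further: KINOMEscan kinase panel screen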
property.name: %Inh (%)
Just the number in %, nothing appended.

# annotated cases, reported %Inh shown
* Cn1ccc2ncnc(Oc3ccc(NC(=O)Nc4cccc(C(F)(F)F)c4)c(F)c3)c21 | 7
* Cc1ccc2c(-c3ccnc(Nc4ccc(C(F)(F)F)cc4)n3)cnn2n1 [GW819776] | 23
* O=C(Nc1ccc(Oc2ccc3nc(NC(=O)C4CC4)cn3n2)c(F)c1)c1cccn(-c2ccccc2)c1=O | 0
* COc1cc2nccc(Nc3ccc(Oc4ccccc4)cc3)c2cc1OC.Cl [GI261656] | 0
* COc1cccc(C2=C(Nc3cccc(Cl)c3)C(=O)NC2=O)c1 [SB-341556] | 23
* NC(=O)Nc1sc(-c2ccc(F)cc2)cc1C(N)=O [GW789449] | 97.8
* Nc1nccc(-c2ccc3c(N)n[nH]c3c2)n1 [GSK1034945] | 83
* Cl.Cl.NC[C@H](CC1CCCCC1)NC(=O)c1ccc(-c2ccnc3[nH]ccc23)s1 [GSK1581428] | 99.9
* Cn1ccc2ncnc(Oc3ccc(NC(=O)Nc4cnn(C(C)(C)C)c4)c(Cl)c3)c21 | 11
* N#Cc1cccc(C(=O)NC2CCN(c3ccnc(Nc4ccc(F)cc4)n3)C2)c1 (centres unmarked) [GSK1379708] | 0

Inquiry: Request body: readout %Inh, system MYLK4, query C[C@@H]1CCN(C(=O)N2CCCC2)C[C@@H]1N(C)c1ncnc2[nH]ccc12 . Return the value.
Reply text: 3

Inquiry: Another compound to check: COC(=O)c1cccc(NC(=O)NC2CCN(c3ccnc(NCc4ccc(F)cc4)n3)CC2)c1 [GSK1379860]
Reply text: 0

Inquiry: Another compound to check: Cc1ccc(Nc2ccnc(Nc3ccc4c(c3)CS(=O)(=O)C4)n2)cc1O.Cl [GW579362]
Reply text: 87

Inquiry: Another compound to check: CC(C)S(=O)(=O)N1CCN(Cc2ccc3c(c2)nc(NC(=O)c2ccsc2)n3C[C@H](O)c2ccccc2)CC1 [GW635815]
Reply text: 0

---

# System: DYRK2
# particulars: concentration: 1 μM,replicates: in singlicate; n = 1
property.name: %Inh (%)
Just the number in %, nothing appended.

# annotated cases, reported %Inh shown
• COc1cc2nccc(Nc3ccc(Oc4ccccc4)cc3)c2cc1OC.Cl [GI261656] = 9
• COc1cccc(OC)c1C(=O)Nc1cccc(-c2nn3ccccc3c2-c2ccnc(Nc3cccc(F)c3)n2)c1 [GSK361065] = 0
• C[C@@H](Oc1cc(-n2cnc3ccc(-c4ccncc4)cc32)sc1C(N)=O)c1ccccc1Cl [GSK483724] = 48

Now consider the entry below.
Inquiry: Find the recorded %Inh belonging to Cn1ccc2ncnc(Oc3ccc(NC(=O)Nc4ccnc(C(F)(F)F)c4)c(Cl)c3)c21 and report it.
Reply text: 0

---

# key: entry, value: %Inh
# System: MST1R
# particulars: concentration: 1 μM,replicates: in singlicate; n = 1
Just the number in %, nothing appended.

# annotated cases, reported %Inh shown
- COc1cc2c(Nc3ccc(NC(=O)c4ccccc4)cc3)ncnc2cc1OCCCN1CCOCC1: 43
- C[C@@H]1CNc2c(sc3ccc4nc(-c5ccncc5)ccc4c23)C(=O)N1: 18
- O=C1NCCc2[nH]c(-c3ccncc3)cc21: 51

Inquiry: Find the recorded %Inh belonging to COC(=O)Nc1nc2cc(Oc3ccc(NC(=O)Nc4cc(C(F)(F)F)ccc4Cl)cc3)ccc2[nH]1.Cl and report it.
Reply text: 41

Inquiry: Another molecule to check: O=c1[nH]cc(-c2ccc(O)cc2)c2sc(-c3ccncc3)cc12
Reply text: 44

Inquiry: Another molecule to check: CC(C)c1nc(-c2cccc(NS(=O)(=O)c3ccccc3)c2)c(-c2ccnc(Nc3ccc4c(c3)CN(C)CC4)n2)s1
Reply text: 41

---

# Test system: CDK7
# particulars: concentration: 1 μM,replicates: in singlicate; n = 1
Decide using %Inh alone. Strictly below 1%: Satisfied. Equal to or above 1%: Not satisfied.

* C[C@@H]1CNc2c(sc3ccc4nc(-c5ccc(O)cc5)ccc4c23)C(=O)N1 | Not satisfied
* Cn1ccc2ncnc(Oc3ccc(NC(=O)Nc4cccc(C(F)(F)F)c4)c(Cl)c3)c21 | Not satisfied

Turning now to a further compound:
Inquiry: Consider COc1cccc(CNC(=O)NC2CCN(c3ccnc(Nc4cc(OC)c(OC)c(OC)c4)n3)C2)c1 (stereo not drawn) . Does its %Inh lie strictly below 1%?
Reply text: Satisfied

---

# System: JNK3
# Construct: gene MAPK10
# particulars: concentration: 1 μM,replicates: in singlicate; n = 1
property.name: %Inh (%)
Just the number in %, nothing appended.

# annotated cases, reported %Inh shown
- O=C(Nc1ccccc1)c1cccc(Oc2ccc3nccn3n2)c1: 6
- CN(c1cccc(CNc2nc(Nc3ccc4c(c3)CC(=O)N4)ncc2C(F)(F)F)c1)S(C)(=O)=O: 35
- CCCC(=O)Nc1n[nH]c2ncccc12 [SB-601436]: 1

Inquiry: Request body: readout %Inh, system JNK3, query Cn1ccc2ncnc(Oc3ccc(NC(=O)Nc4cnn(C(C)(C)C)c4)c(Cl)c3)c21 . Return the value.
Reply text: 0

Inquiry: Another compound to check: C[C@@H]1CCN(C(=O)N2CCCC2)C[C@@H]1N(C)c1ncnc2[nH]ccc12
Reply text: 3

Inquiry: Another compound to check: Cn1ccc2ncnc(Oc3ccc(NC(=O)Nc4ccnc(C(F)(F)F)c4)c(Cl)c3)c21
Reply text: 0

Inquiry: Another compound to check: CSc1nccc(-c2c(-c3ccc(F)cc3)ncn2CCCN2CCOCC2)n1.Cl [SB-217146]
Reply text: 34

Inquiry: Another compound to check: Cc1cccc(-c2nc(Nc3ccncc3)c3sccc3n2)n1 [GW869641]
Reply text: 94.6

Inquiry: Another compound to check: COc1cccc(C2=C(Nc3cccc(Cl)c3)C(=O)NC2=O)c1 [SB-341556]
Reply text: 32

Inquiry: Another compound to check: COc1cc2ncn(-c3cc(OCC4CCCCC4)c(C(N)=O)s3)c2cc1OC [GSK204559]
Reply text: 19

Inquiry: Another compound to check: Cl.Nc1n[nH]c2cc(-c3ccccn3)ccc12 [GSK2189892]
Reply text: 0

---

# System: ANKK1
# particulars: concentration: 1 μM,replicates: in singlicate; n = 1
Everything with %Inh lower than 5% is Condition not met; everything else, including exactly 5%, is Condition met.

• CSc1nccc(-c2c(-c3ccc(F)cc3)ncn2CCCN2CCOCC2)n1.Cl [SB-217146] = Condition not met

Inquiry: # check: %Inh of CNC(=O)c1ccccc1Nc1nc(Nc2cccc(CS(C)(=O)=O)c2)ncc1C.O=CO [GSK1520489] is greater than or equal to 5%
Reply text: Condition met

Inquiry: Another compound to check: CC(=O)Nc1nc2cnc(Nc3cc(NC(=O)c4cccc(CC(C)(C)C#N)c4)ccc3C)nc2s1
Reply text: Condition not met

Inquiry: Another compound to check: O=C1NCCc2[nH]c(-c3ccncc3)cc21
Reply text: Condition met

Inquiry: Another compound to check: CN1CCN(CCNc2nc3cc(Oc4ccc(NC(=O)Nc5cc(C(F)(F)F)ccc5F)cc4)ccc3[nH]2)CC1.Cl.Cl [GW768504]
Reply text: Condition not met

Inquiry: Another compound to check: Cl.Nc1n[nH]c2cc(-c3ccccn3)ccc12 [GSK2189892]
Reply text: Condition not met

Inquiry: Another compound to check: COc1cc2c(Nc3ccc(NC(=O)c4ccccc4)cc3)ncnc2cc1OCCCN1CCOCC1 [GSK301329]
Reply text: Condition met

Inquiry: Another compound to check: O=C(NCC1CC1)c1ccc(-c2cc(C(=O)NC3CC3)ccc2F)cc1 [GW810445]
Reply text: Condition not met

---

# System: RPS6KA5(Kin.Dom.2-C-terminal)
# particulars: concentration: 1 μM,replicates: in singlicate; n = 1
property.name: %Inh

- CC(=O)Nc1nc2cnc(Nc3cc(NC(=O)c4cccc(CC(C)(C)C#N)c4)ccc3C)nc2s1: 0%
- C[C@@H](Oc1cc(-n2cnc3ccc(-c4ccncc4)cc32)sc1C(N)=O)c1ccccc1Cl: 5%
- CC(=O)Nc1ccc(-c2cc3ncnc(SCC(=O)O)c3s2)cc1: 15%
- Cc1n[nH]c2cc(Nc3ccnc(Nc4cccc(CN5CCOCC5)c4)n3)ccc12: 21%
- COc1cccc(C2=C(Nc3cccc(Cl)c3)C(=O)NC2=O)c1: 0%
- O=C(NCC1CC1)c1ccc(-c2cc(C(=O)NC3CC3)ccc2F)cc1: 7%
- CS(=O)c1ccc(-c2coc3ccc(-c4n[nH]c(=O)o4)cc23)cc1 (stereo not drawn): 14%
- O=C1NCCc2[nH]c(-c3ccncc3)cc21: 58%
- COc1ccc(Nc2nccc(N3CCC(NC(=O)c4cccc(C#N)c4)C3)n2)cc1 (stereo not drawn): 0%
- C[C@@H]1CNc2c(sc3ccc4nc(-c5ccncc5)ccc4c23)C(=O)N1: 0%

Inquiry: Request body: readout %Inh, system RPS6KA5(Kin.Dom.2-C-terminal), query CNC(=O)c1ccccc1Nc1nc(Nc2cccc(CS(C)(=O)=O)c2)ncc1C.O=CO . Return the value.
Reply text: 0%

Inquiry: Another compound to check: CS(=O)(=O)Nc1ccc(-c2ccnc3[nH]ccc23)cc1
Reply text: 86%

Inquiry: Another compound to check: O=C(Nc1cccc(Oc2ccc3nccn3n2)c1)Nc1cccc(C(F)(F)F)c1
Reply text: 0%

Inquiry: Another compound to check: C[C@@H]1CNc2c(sc3ccc4nc(-c5ccc(O)cc5)ccc4c23)C(=O)N1
Reply text: 17%

Inquiry: Another compound to check: COC(=O)Nc1nc2cc(Oc3ccc(NC(=O)Nc4cc(C(F)(F)F)ccc4Cl)cc3)ccc2[nH]1.Cl
Reply text: 0%

Inquiry: Another compound to check: CCNCC(Cc1ccccc1)NC(=O)c1cc(Br)c(-c2ccnc3[nH]ccc23)s1.Cl.Cl (stereo not drawn)
Reply text: 22%

Inquiry: Another compound to check: N#Cc1cccc(C(=O)NC2CCN(c3ccnc(Nc4ccc(F)cc4)n3)C2)c1 (stereo not drawn)
Reply text: 0%

Inquiry: Another compound to check: COc1cc2ncn(-c3cc(OCC4CCCCC4)c(C(N)=O)s3)c2cc1OC
Reply text: 0%
